Data credit: paper PMC1839166

# MEASUREMENT_TARGET: T1, avirulence protein B (AvrB), wild type (Pseudomonas syringae pv. glycinea, UniProt P13835 1-321)
# T1 construct: AvrB (avirulence protein B), type III effector of Pseudomonas syringae pv. glycinea; residues 26-53 and 56-321 are modelled in the AvrB/RIN4 structure; also called wild-type AvrB; source: E. coli BL21 Rosetta (pProEX-HTa), purified (nickel column, TEV digestion, Source Q, Sephacryl S200 if needed); not shown: His tag, N-terminal, cleaved
# T1 sequence (P13835 whole entry, the tested form may be a part): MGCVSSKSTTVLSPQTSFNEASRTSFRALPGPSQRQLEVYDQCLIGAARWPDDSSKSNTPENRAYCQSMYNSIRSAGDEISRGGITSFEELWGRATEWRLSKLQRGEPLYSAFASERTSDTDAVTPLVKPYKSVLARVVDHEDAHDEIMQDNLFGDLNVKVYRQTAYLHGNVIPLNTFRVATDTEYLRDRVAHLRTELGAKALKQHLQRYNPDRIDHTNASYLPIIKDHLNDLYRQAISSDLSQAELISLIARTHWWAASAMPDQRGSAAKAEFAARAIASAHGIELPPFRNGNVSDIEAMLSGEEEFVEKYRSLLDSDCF
# EXPERIMENTAL_PROTOCOL: ITC; VP-ITC microcalorimeter; RIN4_(142–176) peptide (50 to 450 μM) titrated in 6-μl injections into 5 to 25 μM wild-type or variant AvrB, stirring at 255 rpm; wild-type AvrB 6 μM with full-length RIN4 120 μM; nonbinding confirmed at as much as 25 μM and 450 μM
# CONDITION_LABEL: both partners purified
OBSERVED_PROPERTY: pKd
In textbook form, pKd equals minus log to base ten of the concentration in mol/L.

State, in one line, measured pKd of PEKVTVVPKFGDWDENNPSSADGYTHIFNKVREER (peptide, UniProt Q8GYN5 142-176, looked up, the last four residues are printed as REER; residues 150-172 are modelled in the structure; also called RIN4 peptide) [RIN4_(142–176)] 5.52
